# pKi values compiled below
Target: rat TAAR1 (Rattus norvegicus, UniProt Q923Y9)
Construct: expressed in transfected cells; host or cells: HEK 293 (membrane preparation)
Sequence (Q923Y9 whole entry): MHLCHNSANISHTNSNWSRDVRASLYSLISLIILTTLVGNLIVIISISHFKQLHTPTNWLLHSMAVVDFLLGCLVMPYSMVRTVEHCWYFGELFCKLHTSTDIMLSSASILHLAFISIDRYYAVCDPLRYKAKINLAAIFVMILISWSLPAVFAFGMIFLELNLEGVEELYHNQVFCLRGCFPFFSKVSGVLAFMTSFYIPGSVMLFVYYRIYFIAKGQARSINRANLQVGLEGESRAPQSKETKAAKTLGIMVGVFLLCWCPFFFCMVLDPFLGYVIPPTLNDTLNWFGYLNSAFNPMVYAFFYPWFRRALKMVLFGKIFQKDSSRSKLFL
Experiment: Radioligand binding, rat TAAR1 ([3H]RO5166017)
// pKi is dimensionless: -log10 of concentration (M)

A selection of reference data follows.
Compound | Recorded Number
COc1cc(OCC(F)F)c(OC)cc1CC(C)N (stereo not drawn) [MDFEM] | 5.92
COc1cc(OCC(F)F)c(OC)cc1CCN [2C-O-21.5] | 6.60
C=CCOc1cc(OC)c(CC(C)N)cc1OC (stereo not drawn) [MALM, 4-allyloxy-2,5-dimethoxyamphetamine] | 5.96
COc1cc(OCc2ccccc2)c(OC)cc1CCN [2C-O-27, 4-benzyloxy-2,5-dimethoxyphenethylamine] | 7.68
CCOc1cc(OC)c(CCN)cc1OC [2C-O-2, 2,5-dimethoxy-4-ethoxyphenethylamine] | 6.47

Request: Which pKi value is on record for COc1cc(OCCF)c(OC)cc1CC(C)N (stereo not drawn) [MFEM] ?
Result: 5.79

Request: # repeat for C=CCOc1cc(OC)c(CCN)cc1OC [2C-O-16, 4-allyloxy-2,5-dimethoxyphenethylamine]
Result: 6.59

Request: # repeat for C=C(C)COc1cc(OC)c(CC(C)N)cc1OC (stereo not drawn) [MMALM, 2,5-dimethoxy-4-methallyloxyamphetamine]
Result: 6.20

Request: # repeat for COc1cc(OCCF)c(OC)cc1CCN [2C-O-21]
Result: 6.39

----------
# EC50 values compiled below
Target: human 5-HT2B receptor (Homo sapiens, UniProt P41595)
Construct: expressed in transfected cells; host or cells: HEK 293
Sequence (P41595 whole entry): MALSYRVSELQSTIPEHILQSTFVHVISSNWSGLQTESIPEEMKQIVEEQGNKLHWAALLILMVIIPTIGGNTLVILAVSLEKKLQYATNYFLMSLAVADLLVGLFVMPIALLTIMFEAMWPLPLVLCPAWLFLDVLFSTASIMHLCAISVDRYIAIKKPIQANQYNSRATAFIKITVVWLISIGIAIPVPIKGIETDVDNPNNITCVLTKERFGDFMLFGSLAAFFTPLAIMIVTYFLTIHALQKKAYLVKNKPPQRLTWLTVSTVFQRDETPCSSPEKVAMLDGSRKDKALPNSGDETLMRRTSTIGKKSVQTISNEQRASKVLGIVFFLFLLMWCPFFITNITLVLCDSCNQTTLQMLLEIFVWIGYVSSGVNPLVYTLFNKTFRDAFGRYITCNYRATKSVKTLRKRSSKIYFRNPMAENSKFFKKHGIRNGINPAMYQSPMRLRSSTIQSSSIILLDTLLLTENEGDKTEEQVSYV
Test: Activity at the 5-HT2B receptor (FLIPR calcium, HEK 293 cells)
Assay type: cell-based
Protocol: Activity at the 5-HT2B receptor was examined as previously described ([Luethi et al., 2018]). In summary, HEK 293 cells expressing the human 5-HT2B receptor were seeded at a density of 50,000 cells per well in 96-well poly-D-lysine-coated plates overnight at 37°C. […] Concentration-response curves were calculated using nonlinear regression, and EC50 values were obtained. The maximal activity at the receptors was calculated relative to 5-HT activity which was defined as 100%.
Please respond with the number in nM and leave the unit unwritten.

A selection of reference data follows.
Molecule | EC50 [nM]
COc1cc(OCC(F)(F)F)c(OC)cc1CC(C)N (stereo not drawn) | 200
C=C(C)COc1cc(OC)c(CCN)cc1OC | 68
COc1cc(OCC(F)F)c(OC)cc1CCN | 480
COc1cc(OC(C)C)c(OC)cc1CC(C)N (stereo not drawn) | 180
COc1cc(OCCF)c(OC)cc1CC(C)N (stereo not drawn) | 270

Turning to the following molecule.
Request: Which EC50 value is on record for `COc1cc(OCCF)c(OC)cc1CCN` ?
Result: 900

----------
Target: α2A adrenergic receptor (Homo sapiens, UniProt P08913)
Construct: expressed in transfected cells; host or cells: Chinese hamster lung cell line (membrane preparation)
Sequence (P08913 whole entry): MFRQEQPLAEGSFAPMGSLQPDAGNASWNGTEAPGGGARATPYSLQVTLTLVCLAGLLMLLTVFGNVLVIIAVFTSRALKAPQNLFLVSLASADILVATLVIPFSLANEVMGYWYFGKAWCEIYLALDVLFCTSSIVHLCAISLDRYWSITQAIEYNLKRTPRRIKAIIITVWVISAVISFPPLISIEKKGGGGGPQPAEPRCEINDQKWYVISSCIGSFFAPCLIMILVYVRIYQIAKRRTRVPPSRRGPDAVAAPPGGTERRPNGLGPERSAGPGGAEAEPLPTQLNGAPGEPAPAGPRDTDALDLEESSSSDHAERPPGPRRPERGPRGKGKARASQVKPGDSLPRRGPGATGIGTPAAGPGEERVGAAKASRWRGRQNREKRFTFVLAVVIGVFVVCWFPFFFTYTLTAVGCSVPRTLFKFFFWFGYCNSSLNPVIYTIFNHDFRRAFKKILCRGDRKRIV
Assay: Radioligand binding, α2A adrenergic receptor ([3H]rauwolscine)
# log10 Ki values compiled below
Heads up: the numbers are on a log10 scale; they represent Ki in nM.

A selection of reference data follows.
Molecule | Target Or Test System | log10 Ki
C=C(C)COc1cc(OC)c(CC(C)N)cc1OC (stereo not drawn) | α2A adrenergic receptor (Homo sapiens, UniProt P08913) | 3.38
COc1cc(OCc2ccccc2)c(OC)cc1CCN | α2A adrenergic receptor (Homo sapiens, UniProt P08913) | 2.76
C=C(C)COc1cc(OC)c(CCN)cc1OC | α2A adrenergic receptor (Homo sapiens, UniProt P08913) | 2.26
COc1cc(OCC(F)F)c(OC)cc1CCN | α2A adrenergic receptor (Homo sapiens, UniProt P08913) | 3.28
COc1cc(OCC(F)(F)F)c(OC)cc1CCN | α2A adrenergic receptor (Homo sapiens, UniProt P08913) | 3.26

Turning to the following molecule.
Request: Which log10 Ki value is on record for `C=CCOc1cc(OC)c(CCN)cc1OC` ?
Result: 2.79

----------
# Emax values compiled below
Biological target: human 5-HT2B receptor (Homo sapiens, UniProt P41595)
Construct: expressed in transfected cells; host or cells: HEK 293
Test: Activity at the 5-HT2B receptor (FLIPR calcium, HEK 293 cells)
Type: cell-based
Conditions: HEK293, relative to 5-HT = 100%; read-out: h5-HT2B Activation efficacy max ± SD
Please respond with the number in % and leave the unit unwritten.

Request: Which Emax value is on record for COc1cc(OCCF)c(OC)cc1CC(C)N (centres unmarked) ?
Result: 41

Request: # repeat for COc1cc(OCC(F)(F)F)c(OC)cc1CC(C)N (centres unmarked)
Result: 5

Request: # repeat for COc1cc(OCC(F)F)c(OC)cc1CC(C)N (centres unmarked)
Result: 21

Request: # repeat for `C=CCOc1cc(OC)c(CCN)cc1OC`
Result: 42

Request: # repeat for COc1cc(OC)c(OC)cc1CC(C)N (centres unmarked)
Result: 78

Request: # repeat for `COc1cc(OCC(F)(F)F)c(OC)cc1CCN`
Result: 28

Request: # repeat for `COc1cc(OCCF)c(OC)cc1CCN`
Result: 39

Request: # repeat for `C=C(C)COc1cc(OC)c(CCN)cc1OC`
Result: 50

----------
Target: hDAT (Homo sapiens)
Sequence (Q01959 whole entry): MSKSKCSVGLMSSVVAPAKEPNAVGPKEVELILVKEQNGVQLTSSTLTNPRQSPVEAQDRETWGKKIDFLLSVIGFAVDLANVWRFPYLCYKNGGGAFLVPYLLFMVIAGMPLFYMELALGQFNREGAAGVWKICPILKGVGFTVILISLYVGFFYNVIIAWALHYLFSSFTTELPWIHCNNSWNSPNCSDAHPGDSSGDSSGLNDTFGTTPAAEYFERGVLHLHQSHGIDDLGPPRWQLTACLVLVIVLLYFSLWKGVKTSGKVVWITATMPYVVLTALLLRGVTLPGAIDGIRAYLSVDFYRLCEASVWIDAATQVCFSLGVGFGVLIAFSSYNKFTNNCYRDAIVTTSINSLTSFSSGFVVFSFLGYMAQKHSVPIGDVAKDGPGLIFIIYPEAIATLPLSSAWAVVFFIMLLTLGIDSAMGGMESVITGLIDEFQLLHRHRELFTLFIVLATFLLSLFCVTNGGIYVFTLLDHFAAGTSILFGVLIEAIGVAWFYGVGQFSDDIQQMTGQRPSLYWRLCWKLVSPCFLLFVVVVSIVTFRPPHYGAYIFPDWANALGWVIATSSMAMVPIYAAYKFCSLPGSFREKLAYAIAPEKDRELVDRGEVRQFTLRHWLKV
Assay: Radioligand binding, DAT ([3H]WIN35,428)
Design: expressed in transfected cells; host or cells: HEK 293 (membrane preparation)
Recorded Metric: Ki

A selection of reference data follows.
Compound | Target Or Test System | Ki
COc1cc(OCC(F)(F)F)c(OC)cc1CCN [2C-O-22] | hDAT (Homo sapiens) | > 8.7 µM
COc1cc(OCc2ccccc2)c(OC)cc1CCN [2C-O-27, 4-benzyloxy-2,5-dimethoxyphenethylamine] | hDAT (Homo sapiens) | 6.1 µM
COc1cc(OCCF)c(OC)cc1CCN [2C-O-21] | hDAT (Homo sapiens) | > 8.7 µM

Request: Which Ki value is on record for C=C(C)COc1cc(OC)c(CCN)cc1OC [2C-O-3] ?
Result: > 8.7 µM

Request: # repeat for COc1cc(OC)c(OC)cc1CC(C)N (centres unmarked) [TMA-2, 2,4,5-trimethoxyamphetamine]
Result: > 8.5 µM

----------
Target: α1A adrenergic receptor (Homo sapiens)
Construct: expressed in transfected cells; host or cells: Chinese hamster ovary cell line (membrane preparation)
Sequence (P35348 1-466): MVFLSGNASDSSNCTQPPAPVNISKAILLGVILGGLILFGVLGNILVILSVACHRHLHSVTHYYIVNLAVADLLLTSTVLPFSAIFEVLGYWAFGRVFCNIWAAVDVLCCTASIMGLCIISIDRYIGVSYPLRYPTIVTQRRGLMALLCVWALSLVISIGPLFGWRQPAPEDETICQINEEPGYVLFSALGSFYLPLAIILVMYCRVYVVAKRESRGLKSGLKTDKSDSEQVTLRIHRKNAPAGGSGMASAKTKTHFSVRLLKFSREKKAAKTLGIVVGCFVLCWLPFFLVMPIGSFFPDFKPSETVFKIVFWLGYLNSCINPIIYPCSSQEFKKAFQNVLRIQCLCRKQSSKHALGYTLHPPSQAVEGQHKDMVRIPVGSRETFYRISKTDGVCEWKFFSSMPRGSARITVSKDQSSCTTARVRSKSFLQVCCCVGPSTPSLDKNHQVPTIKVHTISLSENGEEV
Assay: Radioligand binding, α1A adrenergic receptor ([3H]prazosin)
Recorded Metric: Ki

A selection of reference data follows.
Compound | Result
COc1cc(OCCF)c(OC)cc1CCN [2C-O-21] | > 6.5 µM
COc1cc(OCC(F)(F)F)c(OC)cc1CCN [2C-O-22] | > 6.5 µM
C=C(C)COc1cc(OC)c(CCN)cc1OC [2C-O-3] | > 6.5 µM
COc1cc(OCC(F)F)c(OC)cc1CCN [2C-O-21.5] | > 6.5 µM

Turning to the following compound.
Request: Which Ki value is on record for CCOc1cc(OC)c(CCN)cc1OC [2C-O-2, 2,5-dimethoxy-4-ethoxyphenethylamine] ?
Result: > 6.5 µM

----------
Target: 5-HT1A receptor (Homo sapiens)
Construct: expressed in transfected cells; host or cells: HEK 293 (membrane preparation)
Sequence (P08908 1-422): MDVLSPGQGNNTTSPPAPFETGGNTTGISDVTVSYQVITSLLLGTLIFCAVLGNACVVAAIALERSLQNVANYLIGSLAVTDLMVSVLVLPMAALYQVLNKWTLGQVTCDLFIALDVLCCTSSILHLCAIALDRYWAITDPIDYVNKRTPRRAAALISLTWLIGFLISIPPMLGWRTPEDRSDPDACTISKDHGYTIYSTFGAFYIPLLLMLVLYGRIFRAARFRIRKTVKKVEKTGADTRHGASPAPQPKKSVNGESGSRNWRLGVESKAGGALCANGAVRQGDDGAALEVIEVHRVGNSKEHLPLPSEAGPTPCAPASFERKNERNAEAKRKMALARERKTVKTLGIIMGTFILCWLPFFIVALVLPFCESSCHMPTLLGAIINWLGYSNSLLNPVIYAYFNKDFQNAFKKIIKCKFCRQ
Experiment: Radioligand binding, 5-HT1A receptor ([3H]8-OH-DPAT)
Recorded Metric: pKi
// pKi is dimensionless: -log10 of concentration (M)

Smiles | pKi
COc1cc(OCCF)c(OC)cc1CCN | 5.26
CCOc1cc(OC)c(CCN)cc1OC | 5.44

Request: Which pKi value is on record for `COc1cc(OCc2ccccc2)c(OC)cc1CCN` ?
Result: 5.57

Request: # repeat for `C=CCOc1cc(OC)c(CCN)cc1OC`
Result: 5.35
